Some compounds, each annotated with its measured melting point.

Worked examples, 4 compounds total:
>>> reading("COc1ccc(-c2ccn3c(=O)c(C(=O)O)ccc3c2)cc1 [Compound 22a]")
"> 250 °C"
>>> reading("O=C(O)c1ccc2cc(-c3cccc4ccccc34)ccn2c1=O [Compound 23a]")
"245 to 247 °C"
>>> reading("O=C(O)CC(C(=O)O)c1ccn2c(=O)c(C(=O)O)cc(Br)c2c1 (centres unmarked) [Compound 21a]")
"> 250 °C"
>>> reading("O=C(O)c1cc(Br)c2ccccn2c1=O")
"> 250 °C"

API: the following record is the query input.
Which measured melting point value corresponds to O=C(O)c1ccc2cc(Cl)ccn2c1=O ? > 250 °C

====

experimental protocol: UV absorption spectrum of the free indicator
Format: physicochemical
condition label: buffer pH 7.2
attribute measured: A, absorption maximum of the free indicator (nm)

>>> reading("COc1ccc(-c2ccn3c(=O)c(C(=O)O)ccc3c2)cc1 [Compound 22a]")
406
>>> reading("O=C(O)c1cc(Br)c2ccccn2c1=O")
403
>>> reading("O=C(O)c1cc(CC(C(=O)O)C(=O)O)c2ccccn2c1=O [Compound 13a]")
395
>>> reading("O=C(O)CC(C(=O)O)c1ccn2c(=O)c(C(=O)O)ccc2c1 (stereo not shown) [Compound 20a]")
390
>>> reading("O=C(O)c1ccc2ccc3ccccc3n2c1=O")
410
>>> reading("O=C(O)c1ccc2ccccn2c1=O")
385
>>> reading("O=C(O)c1ccc2cc(Cl)ccn2c1=O")
391
>>> reading("O=C(O)c1ccc2cc(-c3cccc4ccccc34)ccn2c1=O [Compound 23a]")
386
>>> reading("O=C(O)c1ccc2cc(-c3cc4ccccc4o3)ccn2c1=O [Compound 24a]")
440
>>> reading("Nc1ccn2c(=O)c(C(=O)O)ccc2c1 [Compound 15a]")
385
>>> reading("O=C(O)CC(C(=O)O)c1ccn2c(=O)c(C(=O)O)cc(Br)c2c1 (stereo not shown) [Compound 21a]")
407
>>> reading("O=C(O)C(=Cc1cc(C(=O)O)c(=O)n2ccccc12)C(=O)O [Compound 12a]")
400
>>> reading("O=C(O)Cc1ccn2c(=O)c(C(=O)O)ccc2c1 [Compound 19a]")
380

====

experimental protocol: fluorescence/pH titration to determine pKa
Type: physicochemical
condition label: 10 mM MOPS buffer, from pH 4.29, read-out: pKa of the carboxylate group on the ring system
attribute measured: pKa
Please give only the number in your answer, with no unit.

Which measured pKa value corresponds to O=C(O)CC(C(=O)O)c1ccn2c(=O)c(C(=O)O)cc(Br)c2c1 (stereo not shown) [Compound 21a] ? 5.6
